B1: VH:VL chains; a variant is named by its letters at X, in order (parent)
chain 1: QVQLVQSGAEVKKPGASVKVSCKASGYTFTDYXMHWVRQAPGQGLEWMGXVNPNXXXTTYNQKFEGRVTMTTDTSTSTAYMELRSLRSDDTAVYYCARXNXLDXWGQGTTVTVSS
chain 2: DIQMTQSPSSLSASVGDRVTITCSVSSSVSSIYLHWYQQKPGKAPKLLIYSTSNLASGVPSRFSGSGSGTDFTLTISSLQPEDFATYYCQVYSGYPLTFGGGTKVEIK

Variants of: B1
assay notes: yeast display scFab, FACS + sequencing
run conditions: with MET
Some of the results follow. The true hit rate is not given.
property label: antigen binding call

>>> result("FRRGGSLD")
"binds"
>>> result("YRGAGAWA")
"binds"
>>> result("YRRGSASS")
"binds"
>>> result("SAAGGDGV chain 1 L45S")
"no binding"
>>> result("YTGTSAWA")
"no binding"
>>> result("YRRGSAGS")
"binds"

Provide reported antigen binding call for each item, in the same order as listed.
1. SRRGSASS
2. FRGRGAGA
3. FRGRGVGA
4. YRRGDAGS
5. FARAAALD

Result block:
binds
binds
binds
binds
no binding
